# measurement description: A CellTox Green Cytotoxicity Assay to monitor cytotoxicity in HEK293 cells - 16 hour (AID 1224888); note: nearly all actives have a fitted effect of over 35% in size
# run parameters: CellTox Green fluorescence; series mostly up to 76.8 µM
Records with an inconclusive call do not appear. Calls of active or inactive are those of the source. Calls come from the whole dose curve; as a rule, active = well fitted activation curve with a large enough effect in the repeat runs; inconclusive = weak or mixed curves; inactive = flat fitted curve, though single readings scatter.
Possible outcomes: active, inactive

{"columns": ["molecule", "class name"],
 "data": [
  ["CC[N+](CC)(CC)Cc1ccccc1", "inactive"],
  ["CC1=C(/C=C/C(C)=C/C=C/C(C)=C/C(=O)Nc2ccc(O)cc2)C(C)(C)CCC1", "inactive"],
  ["CCOC(/C=C(\\C)CCC=C(C)C)OCC", "inactive"],
  ["Cc1cc(C)c(C=O)c(C)c1", "inactive"],
  ["Brc1ccccn1", "inactive"],
  ["O=S(=O)(O)CCCN1CCOCC1", "inactive"],
  ["CCCCOc1ccc(C(=O)CCN2CCCCC2)cc1", "inactive"],
  ["O=C(O)Cc1ccc(OCCNC[C@H](O)c2ccccc2)cc1", "inactive"],
  ["CC1CCCCC1", "inactive"],
  ["CCOCOCC", "inactive"],
  ["Clc1ccccc1CN1CCc2sccc2C1", "inactive"],
  ["ClC/C=C\\CCl", "inactive"],
  ["CC1CCCCN1CCCOC(=O)c1ccc(OC2CCCCC2)cc1 (centres undefined)", "inactive"],
  ["CC(=O)Oc1ccc(C2(c3ccc(OC(C)=O)cc3)C(=O)Nc3ccccc32)cc1", "inactive"],
  ["CSc1c(Cl)c(Cl)c(Cl)c(Cl)c1Cl", "inactive"],
  ["O=C(O)CC(=O)O", "inactive"],
  ["COc1ccccc1OCCNCC(O)COc1cccc2[nH]c3ccccc3c12 (centres undefined)", "inactive"],
  ["CC(C)=CC1CC(C)CCO1 (centres undefined)", "inactive"],
  ["CC1CCCNC1 (centres undefined)", "inactive"],
  ["O=c1cccc[nH]1", "inactive"],
  ["CC1CNCC(C)O1 (centres undefined)", "inactive"],
  ["CC(C)(C)C1=CC(=O)C=C(C(C)(C)C)C1=O", "inactive"],
  ["Nc1ncnc2c1ncn2[C@@H]1O[C@H](COP(=O)(O)O)[C@@H](O)[C@H]1O", "inactive"],
  ["COC(=O)CC(C)CCC=C(C)C (centres undefined)", "inactive"],
  ["CC=O", "active"],
  ["Cc1c(-c2ccc(O)cc2)n(Cc2ccc(OCCN3CCCCCC3)cc2)c2ccc(O)cc12", "active"],
  ["CC(=O)Nc1ccc(O)cc1", "inactive"],
  ["Cc1nc(Nc2ncc(C(=O)Nc3c(C)cccc3Cl)s2)cc(N2CCN(CCO)CC2)n1", "inactive"],
  ["O=C1OC(OC(=O)c2cccnc2Nc2cccc(C(F)(F)F)c2)c2ccccc21 (centres undefined)", "inactive"],
  ["COc1ccccc1C=O", "inactive"],
  ["Clc1ccc(C(Cn2ccnc2)OCc2c(Cl)cccc2Cl)c(Cl)c1 (centres undefined)", "inactive"],
  ["CO[Si](CCCNCCNCCN)(OC)OC", "inactive"],
  ["CCOC(OCC)C(=O)c1ccccc1", "inactive"],
  ["C[C@H]1O[C@@H](O[C@H]2[C@@H](O)C[C@H](O[C@H]3[C@@H](O)C[C@H](O[C@H]4CC[C@@]5(C)[C@H](CC[C@@H]6[C@@H]5C[C@@H](O)[C@]5(C)[C@@H](C7=CC(=O)OC7)CC[C@]65O)C4)O[C@@H]3C)O[C@@H]2C)C[C@H](O)[C@@H]1O", "inactive"],
  ["CCCCCCCCCCCCCc1ccccc1", "inactive"],
  ["Cc1ccc2ccc3cccc4ccc1c2c34", "inactive"],
  ["c1ccc2c(c1)CCC2", "inactive"],
  ["CCCCCCCOC(=O)c1ccc(O)cc1", "inactive"],
  ["CCCCCCCCCCCCCCCC", "inactive"]
]}
